# TEST_TARGET: UniProtKB P21397
# Sequence (P21397 whole entry): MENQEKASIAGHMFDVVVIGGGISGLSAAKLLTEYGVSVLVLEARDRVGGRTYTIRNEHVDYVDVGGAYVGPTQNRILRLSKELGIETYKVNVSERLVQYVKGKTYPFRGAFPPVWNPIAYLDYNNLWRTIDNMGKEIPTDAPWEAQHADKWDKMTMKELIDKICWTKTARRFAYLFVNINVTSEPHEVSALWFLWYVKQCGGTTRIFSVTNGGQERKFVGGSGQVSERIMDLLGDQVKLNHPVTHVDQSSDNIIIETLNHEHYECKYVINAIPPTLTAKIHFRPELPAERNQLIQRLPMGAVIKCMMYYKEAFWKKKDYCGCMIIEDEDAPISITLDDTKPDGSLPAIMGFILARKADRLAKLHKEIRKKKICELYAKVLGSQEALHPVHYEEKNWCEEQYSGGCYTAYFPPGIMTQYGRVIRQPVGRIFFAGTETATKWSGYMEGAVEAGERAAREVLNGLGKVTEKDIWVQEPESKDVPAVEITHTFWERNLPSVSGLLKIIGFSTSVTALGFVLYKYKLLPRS
# ASSAY_DETAILS: Inhibition of recombinant human MAO-A expressed in baculovirus infected insect cells using kynuramine as substrate at 10 uM by fluorescence based method relative to control
# MEASUREMENT_SETUP: Insect cell
QUANTITY_KIND: inhibition at 10 µM
Please give the number followed by its unit.

Example cases with answers are listed next.
Cc1ccccc1CNC(=O)c1nc2ccc(O)cc2s1: 15%
O=C(NCc1ccc(Cl)cc1)c1nc2ccc(O)cc2s1: 21%
COc1ccc(CNC(=O)c2nc3ccc(O)cc3s2)cc1F: 32%
O=C(NCc1cccs1)c1nc2ccc(O)cc2s1: 33%
O=C(NCCc1cc2ccccc2[nH]1)c1nc2ccc(O)cc2s1: 51%
O=C(NCc1ccc(F)cc1)c1nc2ccc(O)cc2s1: 52%

Reported inhibition at 10 µM for `O=C(NCc1cccnc1)c1nc2ccc(O)cc2s1` : what is it? 28%
